MEASURED TARGET: rat brain α4β2 nAChRs (Rattus norvegicus, UniProt P09483+P12390)
Sequence (P09483 31-630): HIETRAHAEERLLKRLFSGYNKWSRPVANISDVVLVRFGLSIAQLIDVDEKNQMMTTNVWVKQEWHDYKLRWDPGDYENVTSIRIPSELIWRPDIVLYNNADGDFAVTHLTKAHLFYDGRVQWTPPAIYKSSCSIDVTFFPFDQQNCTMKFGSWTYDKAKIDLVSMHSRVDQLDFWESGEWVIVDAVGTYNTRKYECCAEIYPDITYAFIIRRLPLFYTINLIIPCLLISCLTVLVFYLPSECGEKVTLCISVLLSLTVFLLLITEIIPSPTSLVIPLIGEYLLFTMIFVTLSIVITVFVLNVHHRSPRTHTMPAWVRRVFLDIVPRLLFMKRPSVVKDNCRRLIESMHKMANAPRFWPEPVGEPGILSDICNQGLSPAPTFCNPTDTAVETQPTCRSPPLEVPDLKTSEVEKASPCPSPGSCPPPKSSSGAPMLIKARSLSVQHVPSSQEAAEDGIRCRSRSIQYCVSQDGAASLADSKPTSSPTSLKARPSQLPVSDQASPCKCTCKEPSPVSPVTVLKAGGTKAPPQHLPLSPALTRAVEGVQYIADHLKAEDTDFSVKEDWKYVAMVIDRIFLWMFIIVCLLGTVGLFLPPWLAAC
Sequence (P12390 25-500): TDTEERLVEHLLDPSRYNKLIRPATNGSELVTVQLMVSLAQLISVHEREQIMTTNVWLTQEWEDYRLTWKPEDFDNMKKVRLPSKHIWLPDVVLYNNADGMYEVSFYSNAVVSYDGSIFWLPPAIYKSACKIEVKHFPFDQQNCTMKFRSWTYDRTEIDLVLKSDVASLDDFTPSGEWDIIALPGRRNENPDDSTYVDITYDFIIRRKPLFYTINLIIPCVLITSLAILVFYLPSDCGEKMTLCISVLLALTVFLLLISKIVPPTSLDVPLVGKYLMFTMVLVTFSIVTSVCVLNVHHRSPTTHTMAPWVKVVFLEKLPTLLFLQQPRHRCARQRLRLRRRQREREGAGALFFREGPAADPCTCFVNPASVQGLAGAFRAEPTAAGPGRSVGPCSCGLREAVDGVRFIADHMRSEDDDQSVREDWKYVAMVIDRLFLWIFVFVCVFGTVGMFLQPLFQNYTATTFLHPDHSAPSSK
TEST PROTOCOL: [3H]-cytisine displacement from rat brain membranes
SETTINGS: Ki, 0.3 nM [3H]-cytisine, 4 °C 4 h; ± SEM
compounds and their reported Ki
Please format your answer as a value with the unit trailing.

COMPOUND: C1=CC(c2cccnc2)NCC1 (centres unmarked) [R-isoanatabine, isoanatabine]
Ki: 136 nM

Now turn to the next compound.
Req: Provide measured Ki value, entry: C1=CC(c2cccnc2)NCC1 (centres unmarked) [S-isoanatabine, isoanatabine]
Resp: 108 nM

###

compounds and their reported EC50
MEASURED TARGET: human α4β2 nAChR (Homo sapiens, UniProt P17787+P43681)
Construct: expressed in transfected cells; host or cells: Xenopus laevis oocytes (mRNA injection)
Sequence (P43681 29-627 limits assumed): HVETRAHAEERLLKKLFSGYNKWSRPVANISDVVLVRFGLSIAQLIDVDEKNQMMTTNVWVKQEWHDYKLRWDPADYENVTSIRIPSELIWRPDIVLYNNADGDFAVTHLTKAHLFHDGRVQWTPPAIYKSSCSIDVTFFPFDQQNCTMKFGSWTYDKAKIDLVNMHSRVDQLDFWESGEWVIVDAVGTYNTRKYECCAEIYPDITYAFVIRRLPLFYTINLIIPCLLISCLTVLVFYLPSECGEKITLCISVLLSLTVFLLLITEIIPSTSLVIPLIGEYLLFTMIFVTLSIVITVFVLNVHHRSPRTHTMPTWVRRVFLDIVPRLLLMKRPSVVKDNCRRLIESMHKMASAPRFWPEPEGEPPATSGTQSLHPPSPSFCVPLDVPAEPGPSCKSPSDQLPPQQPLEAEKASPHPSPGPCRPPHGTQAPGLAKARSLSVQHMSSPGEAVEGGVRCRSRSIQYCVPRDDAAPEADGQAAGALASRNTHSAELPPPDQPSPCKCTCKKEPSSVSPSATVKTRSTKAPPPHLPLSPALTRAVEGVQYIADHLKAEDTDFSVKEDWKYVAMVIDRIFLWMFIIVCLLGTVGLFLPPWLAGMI
Sequence (P17787 26-502): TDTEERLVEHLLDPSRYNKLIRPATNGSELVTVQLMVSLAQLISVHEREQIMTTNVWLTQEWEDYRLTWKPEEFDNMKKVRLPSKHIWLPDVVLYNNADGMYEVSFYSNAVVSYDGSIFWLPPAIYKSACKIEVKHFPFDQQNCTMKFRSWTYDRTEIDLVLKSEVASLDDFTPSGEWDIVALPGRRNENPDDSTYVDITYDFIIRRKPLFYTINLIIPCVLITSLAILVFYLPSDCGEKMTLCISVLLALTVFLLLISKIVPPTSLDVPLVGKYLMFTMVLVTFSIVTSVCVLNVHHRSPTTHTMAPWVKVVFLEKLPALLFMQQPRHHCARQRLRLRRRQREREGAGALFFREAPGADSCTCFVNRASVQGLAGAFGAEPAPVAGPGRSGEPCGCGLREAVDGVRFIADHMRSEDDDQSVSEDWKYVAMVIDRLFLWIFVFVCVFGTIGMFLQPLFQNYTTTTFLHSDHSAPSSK
TEST PROTOCOL: Two-electrode voltage-clamp, human α4β2 nAChRs expressed in Xenopus oocytes
Format: cell-based
SETTINGS: EC50, potency; peak current; ± SEM
Supply the numeric figure in nM, leaving out any unit text.

COMPOUND: C1=CC(c2cccnc2)NCC1 (centres unmarked) [S-isoanatabine, isoanatabine]
MEASUREMENT KIND: EC50
QUANTITY UNIT: nM
MEASUREMENT: 1010

Now turn to the next compound.
Req: Provide measured EC50 value, entry: C1=CC(c2cccnc2)NCC1 (centres unmarked) [R-isoanatabine, isoanatabine]
Resp: 310

###

MEASURED TARGET: rat brain α7 receptors (Rattus norvegicus)
Sequence (Q05941 23-502): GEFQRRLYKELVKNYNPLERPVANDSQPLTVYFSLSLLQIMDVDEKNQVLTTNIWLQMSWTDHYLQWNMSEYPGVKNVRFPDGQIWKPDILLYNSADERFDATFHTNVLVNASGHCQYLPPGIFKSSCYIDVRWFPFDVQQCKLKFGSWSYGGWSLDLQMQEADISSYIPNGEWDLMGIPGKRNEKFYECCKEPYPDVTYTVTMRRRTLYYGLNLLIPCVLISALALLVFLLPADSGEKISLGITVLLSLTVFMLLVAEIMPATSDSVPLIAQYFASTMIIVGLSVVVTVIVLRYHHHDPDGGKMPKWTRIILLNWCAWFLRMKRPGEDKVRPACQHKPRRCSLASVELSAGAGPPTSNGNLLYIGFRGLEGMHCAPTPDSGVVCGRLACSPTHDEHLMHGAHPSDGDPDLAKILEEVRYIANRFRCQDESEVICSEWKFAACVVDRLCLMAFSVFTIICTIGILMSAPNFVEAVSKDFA
compounds and their reported pKi
Please note pKi is a logarithmic value: minus log10 of concentration in mol/L. Answer with that number alone.

COMPOUND: C1=CC[C@@H](c2cccnc2)NC1 [S-anatabine, anatabine]
MEASURED TARGET: rat brain α7 receptors (Rattus norvegicus)
MEASUREMENT: 6.63

Now turn to the next compound.
Req: For rat brain α7 receptors (Rattus norvegicus), give the measured pKi of the entry C1=CC[C@H](c2cccnc2)NC1 [R-anatabine, anatabine]
Resp: 6.17

###

MEASURED TARGET: UniProtKB P36544
Sequence (P36544 23-502): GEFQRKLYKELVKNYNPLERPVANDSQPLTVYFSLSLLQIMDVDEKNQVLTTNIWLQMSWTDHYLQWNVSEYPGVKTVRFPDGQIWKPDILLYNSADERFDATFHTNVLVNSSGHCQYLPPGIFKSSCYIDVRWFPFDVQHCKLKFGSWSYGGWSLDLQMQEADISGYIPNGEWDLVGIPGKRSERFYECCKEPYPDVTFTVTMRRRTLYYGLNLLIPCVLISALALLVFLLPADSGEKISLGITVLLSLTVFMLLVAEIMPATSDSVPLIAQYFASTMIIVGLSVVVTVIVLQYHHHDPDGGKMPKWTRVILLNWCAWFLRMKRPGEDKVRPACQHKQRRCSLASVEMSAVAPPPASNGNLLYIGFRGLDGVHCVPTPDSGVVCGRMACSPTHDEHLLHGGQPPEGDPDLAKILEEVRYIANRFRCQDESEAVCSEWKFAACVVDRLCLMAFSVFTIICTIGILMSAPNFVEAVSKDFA
TEST PROTOCOL: Two-electrode voltage-clamp, human α7 nAChRs expressed in Xenopus oocytes
SETTINGS: EC50, potency; peak current estimates; ± SEM
Description: It has been especially useful for investigating α7 nAChRs, due to the difficulties that were initially encountered in functional expression of this particular homomeric nAChR in mammalian cells. We measured the peak current response of an oocyte to a given concentration of the compound and expressed its amplitude with respect to the mean response to ACh before and after the compound test concentration. […]
MEASUREMENT KIND: pEC50
Please note pEC50 is a logarithmic value: minus log10 of concentration in mol/L. Answer with that number alone.

Req: For UniProtKB P36544, give the measured pEC50 of the entry C1=CC(c2cccnc2)NCC1 (centres unmarked) [S-isoanatabine, isoanatabine]
Resp: 4.28

Req: For UniProtKB P36544, give the measured pEC50 of the entry C1=CC(c2cccnc2)NCC1 (centres unmarked) [R-isoanatabine, isoanatabine]
Resp: 4.21
